experiment: Cytotoxicity against human colchicine-resistant KBC2 cells in presence of 2.5 uM colchicine after 48 hrs by MTT assay; type: cell-based; conditions: KB-C2, 48 h
Entries and their pIC50
Lab note — pIC50 values are minus log10 of concentrations in M.

compound="COC(=O)CC(=O)O[C@@H]1CC[C@]2(C)[C@H]3C[C@@H](OC(C)=O)[C@@H]4[C@@H]([C@]5(C)CC[C@H](C(C)(C)O)O5)CC[C@@]4(C)[C@]3(C)CC[C@H]2C1(C)C [METHYL PAPYRIFERATE]" quantity=pIC50 value_observed=5.43

[Q] Tell us which pIC50 value is on record for C=C(C)[C@@H]1CC[C@]2(C)[C@H](CCC3=C4CC(C)(C)CC[C@]4(C)CC[C@]32C)[C@@]1(C)CCC(=O)O
[A] 4.44

[Q] Consider the compound CC(C)(O)[C@H]1CC[C@@](C)([C@H]2CC[C@]3(C)[C@@H]2CC[C@@H]2[C@@]4(C)CCC(=O)C(C)(C)[C@@H]4CC[C@]23C)O1 and give its recorded pIC50.
[A] 4.19

[Q] For the compound CC(C)=CCC[C@](C)(O)[C@H]1CC[C@]2(C)[C@@H]1CC[C@@H]1[C@@]3(C)CCC(=O)C(C)(C)[C@@H]3CC[C@]12C , report pIC50.
[A] 4.42
